The measurements presented in this section are drawn from patent US20260028340A1.

Assay: Pharmacokinetic data in CD-1 mice after oral administration
Assay type: in vivo
Conditions: mouse, 10 mg/kg molar equivalent to Cmpd. A (nominal), serum, analyte: dosed derivative (DV)
Each entry below lists one item and its recorded half-life value.
Note: unit h is implicit; provide only the numeric part.

Some compounds with recorded half-life:
CN1CCN(C(=O)N2CCN=C2c2ccccc2C(=O)c2ccc(Cl)cc2)CC1 [II-6] :: 0.85
C=CCOC1(c2ccc(Cl)cc2)c2ccccc2C2=NCCN21 (stereo not drawn) [Compound I-3] :: 1.7
COC1(c2ccc(Cl)cc2)c2ccccc2C2=NCCN21 (stereo not drawn) [Compound I-6] :: 0.85
COc1ccc(COC2(c3ccc(Cl)cc3)c3ccccc3C3=NCCN32)cc1 (stereo not drawn) [Compound I-2] :: 1.8

Asked: Please look up its half-life: CCOC1(c2ccc(Cl)cc2)c2ccccc2C2=NCCN21 (stereo not drawn) [Compound I-8]
Given back: 2.12

Asked: For CC(C)=CCC/C(C)=C/COC1(c2ccc(Cl)cc2)c2ccccc2C2=NCCN21 (stereo not drawn) [Compound I-11] , what is its reported half-life?
Given back: 1.16

----------
In this section we review reported Cmax values for a set of compounds.
Assay: Pharmacokinetic data in CD-1 mice after oral administration
Format: in vivo
Conditions: mouse, 10 mg/kg molar equivalent to Cmpd. A (nominal), serum, analyte: dosed derivative (DV)
Please format your answer as a value with the unit trailing.

Illustrative cases are given below, each with its answer.
CCOC1(c2ccc(Cl)cc2)c2ccccc2C2=NCCN21 (stereo not drawn) :: 32 ng/mL
O=C(c1ccc(Cl)cc1)c1ccccc1C1=NCCN1C(=O)c1ccc2c(c1)OCO2 :: 50.3 ng/mL
Clc1ccc(C2(OCc3ccc4c(c3)OCO4)c3ccccc3C3=NCCN32)cc1 (stereo not drawn) :: 211 ng/mL
CC(C)COC1(c2ccc(Cl)cc2)c2ccccc2C2=NCCN21 (stereo not drawn) :: 82.5 ng/mL
COCCOCCOCCOC1(c2ccc(Cl)cc2)c2ccccc2C2=NCCN21 (stereo not drawn) :: 67.6 ng/mL
Clc1ccc(C2(OCc3ccccc3)c3ccccc3C3=NCCN32)cc1 (stereo not drawn) :: 68.2 ng/mL
COCCOC1(c2ccc(Cl)cc2)c2ccccc2C2=NCCN21 (stereo not drawn) :: 475 ng/mL
O=C(c1ccc(Cl)cc1)c1ccccc1C1=NCCN1C(=O)c1ccccc1 :: 43 ng/mL

Asked: If you can, please state the reported Cmax value of C=CCOC1(c2ccc(Cl)cc2)c2ccccc2C2=NCCN21 (stereo not drawn) .
Given back: 52.9 ng/mL

----------
Experiment: Pharmacokinetic data in CD-1 mice after oral administration
Assay type: in vivo
Details: mouse, 10 mg/kg molar equivalent to Cmpd. A (nominal), serum, analyte: dosed derivative (DV)
// label = T if AUC(0-t) is not less than 300 ng·h/mL, otherwise F

O=C(c1ccc(Cl)cc1)c1ccccc1C1=NCCN1C(=O)c1ccccc1 :: F
COCCOC1(c2ccc(Cl)cc2)c2ccccc2C2=NCCN21 (stereo not shown) :: T
COC1(c2ccc(Cl)cc2)c2ccccc2C2=NCCN21 (stereo not shown) :: F
CC(C)=CCC/C(C)=C/COC1(c2ccc(Cl)cc2)c2ccccc2C2=NCCN21 (stereo not shown) :: F
CN1CCN(C(=O)N2CCN=C2c2ccccc2C(=O)c2ccc(Cl)cc2)CC1 :: T

Asked: Determine whether measured AUC(0-t) meets or exceeds 300 ng·h/mL for Clc1ccc(C2(OCc3ccccc3)c3ccccc3C3=NCCN32)cc1 (stereo not shown)
Given back: F

Asked: Kindly determine if AUC(0-t) recorded for C=CCOC1(c2ccc(Cl)cc2)c2ccccc2C2=NCCN21 (stereo not shown) is above or exactly 300 ng·h/mL.
Given back: F

Asked: Determine whether this compound has AUC(0-t) no lower than 300 ng·h/mL: `Cc1ccc(C(=O)N2CCN=C2c2ccccc2C(=O)c2ccc(Cl)cc2)cc1`
Given back: F

Asked: Can CC(C)=CCOC1(c2ccc(Cl)cc2)c2ccccc2C2=NCCN21 (stereo not shown) be said to have AUC(0-t) at or above 300 ng·h/mL?
Given back: F

Asked: Tell me whether AUC(0-t) is at least 300 ng·h/mL here: CCOC1(c2ccc(Cl)cc2)c2ccccc2C2=NCCN21 (stereo not shown)
Given back: F

Asked: Hi, just wondering whether `O=C(c1ccc(Cl)cc1)c1ccccc1C1=NCCN1C(=O)c1ccc2c(c1)OCO2` shows AUC(0-t) of 300 ng·h/mL or higher.
Given back: F

Asked: Could you verify whether the entry CC(C)=CCC/C(C)=C/CC/C(C)=C/COC1(c2ccc(Cl)cc2)c2ccccc2C2=NCCN21 (stereo not shown) shows AUC(0-t) of no less than 300 ng·h/mL?
Given back: T
